- Experimental System: acetylcholinesterase (AChE), rat striatum (Rattus norvegicus)
- Sequence (P37136 32-614): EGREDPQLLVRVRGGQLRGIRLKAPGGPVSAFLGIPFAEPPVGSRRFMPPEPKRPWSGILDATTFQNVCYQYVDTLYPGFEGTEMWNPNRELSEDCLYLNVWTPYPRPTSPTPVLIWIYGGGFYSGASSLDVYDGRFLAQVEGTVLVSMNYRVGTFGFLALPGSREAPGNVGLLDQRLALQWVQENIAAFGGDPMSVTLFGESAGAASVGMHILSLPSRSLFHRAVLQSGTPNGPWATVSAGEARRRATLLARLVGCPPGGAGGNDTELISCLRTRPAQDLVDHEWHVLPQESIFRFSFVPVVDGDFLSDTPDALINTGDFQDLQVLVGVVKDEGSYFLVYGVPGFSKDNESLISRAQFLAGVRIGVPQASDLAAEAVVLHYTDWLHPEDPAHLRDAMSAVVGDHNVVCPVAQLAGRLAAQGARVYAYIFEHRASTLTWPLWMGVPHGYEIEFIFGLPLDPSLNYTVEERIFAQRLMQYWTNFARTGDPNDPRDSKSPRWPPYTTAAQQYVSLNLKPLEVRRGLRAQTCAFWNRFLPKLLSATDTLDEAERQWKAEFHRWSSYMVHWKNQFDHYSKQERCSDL
One threshold, 60 nM, splits the recorded IC50 values: lower ones are Y, equal or higher ones are N.

- Compound: "CNC(=O)Oc1ccc2c(c1)N(C)[C@H]1N(C)CC[C@@]21C (relative stereo)"
  Experimental System: "acetylcholinesterase (AChE), rat striatum (Rattus norvegicus)"
  Group: "N"
- Compound: "CNC(=O)Oc1cc2c(cc1Br)[C@]1(C)CCN(C)[C@@H]1N2C (relative stereo)"
  Experimental System: "acetylcholinesterase (AChE), rat striatum (Rattus norvegicus)"
  Group: "Y"
- Compound: "CN1CC[C@@]2(C)c3c(OC(=O)NC4CCCCC4)cccc3N(C)[C@@H]12 (relative stereo)"
  Experimental System: "acetylcholinesterase (AChE), rat striatum (Rattus norvegicus)"
  Group: "N"

[ask] I'd appreciate it if you could check whether CN1CC[C@@]2(C)c3ccc(OC(=O)NC4CCCCC4)cc3N(C)[C@@H]12 (relative stereo) has IC50 smaller than 60 nM.
[reply] N

Where these numbers come from: patent US5081117A
